Numbers sourced from PubChem BioAssay (NCI).

# Tested on: T-47D breast
# experiment: NCI-60 one-dose screen, 48 h
# applied-conditions: 10 µM unless noted
This is part of a sample that, as a whole, favours compounds with a hit. Of some 83,000 tested, about 20% had one in any assay. Calls of active or inactive are those of the source. How the source made its calls: active means growth percent below 10; inactive means the rest.
Labels: yes for active, no for inactive

>>> label_class("O=C(Nc1ccccc1)Nc1nc2ccc([N+](=O)[O-])cc2[nH]1")
"no"
>>> label_class("C#CCOc1ccc(-c2csc(NC(=O)C=C)n2)cc1NS(=O)(=O)c1cccc2c(N(C)C)cccc12")
"no"
>>> label_class("CNC(=O)c1cc(Oc2ccc3c(c2)sc2nc(-c4ccc(N(C)C)cc4)cn23)ccn1")
"no"
>>> label_class("O=C(/C=C/c1ccccc1)c1cccc(O)c1")
"no"
>>> label_class("CC(=O)Nc1cc(N2CCOCC2)c2nc(NC(=O)c3[nH]c(C)c(Cl)c3Cl)sc2c1")
"no"
>>> label_class("Cn1cc(-c2nn3cc(-c4ccncc4)nc3s2)c2cc(Br)ccc21")
"no"
>>> label_class("O=C1[C@@H]2Cc3c([nH]c4ccccc34)[C@H](c3ccc(Br)cc3)N2C(=O)CN1C1CCN(Cc2c(Cl)cccc2Cl)CC1")
"no"
>>> label_class("CCCN1C=C/C(=C\\C(=O)n2ccc3ccccc32)c2ccccc21")
"no"
>>> label_class("CC(=O)c1c([Si](C)(C)C)c2cc(C#N)ccn2c1C(=O)c1ccc(Br)cc1")
"no"
>>> label_class("O=C1/C(=C/C=C/c2ccco2)SC(=S)N1Cc1ccccc1")
"no"
>>> label_class("CCN(CC)CCOc1ccc(C(=C(C)Cc2ccc(OC)cc2)c2ccc(OCCN(CC)CC)cc2)cc1")
"no"
>>> label_class("O=S(=O)(NCCCNc1nccc(-c2[nH]c(-c3ccccc3)nc2-c2ccc(F)c(O)c2)n1)c1ccc(C(F)(F)F)cc1")
"no"
>>> label_class("CC1=C(C)C(=O)C(Nc2ccc3c(c2)OCCO3)=C(Br)C1=O")
"no"
>>> label_class("Cc1nc(N)sc1-c1csc(Nc2ccc(C(F)(F)F)cc2)n1")
"yes"
>>> label_class("NS(=O)(=O)c1ccc(Nc2nc(Nc3ccccc3)nc(N3N=C(c4ccc(Cl)cc4)CC3c3ccc(Cl)cc3)n2)cc1 (configuration not stated)")
"no"
>>> label_class("Cc1ccc(-c2nc(SCC(=O)c3ccccc3)nc(Nc3ccc(S(N)(=O)=O)cc3)c2C#N)cc1")
"no"
>>> label_class("CCOP(=O)(OCC)OC[C@]12CCC(C)(C)CC1C1=CC[C@@H]3[C@@]4(C)CCCNC(C)(C)[C@@H]4CC[C@@]3(C)[C@]1(C)CC2 (some centres not stated)")
"no"
>>> label_class("Cn1c(SCC(=O)c2ccc(F)cc2)nc2ccccc2c1=O")
"no"
>>> label_class("COc1ccc(-c2cc(-c3ccc(N4CCOCC4)cc3)n3c(n2)nc2ccccc23)cc1OC")
"no"
>>> label_class("CCn1c2ccc(/C=N/N(C)S(=O)(=O)CCN(C)C)cc2c2cc(/C=N/N(C)S(=O)(=O)CCN(C)C)ccc21")
"no"
>>> label_class("CCOC(=O)c1cccc(NC2=C(Cl)C(=O)c3nc(C)ccc3C2=O)c1")
"no"
>>> label_class("CN1CCN(c2ccc(Nc3nc(NCCNC(=O)c4ccccc4)c4sccc4n3)cc2)CC1")
"no"
>>> label_class("Cc1csc(/N=C(N)/N=C(\\N)c2cccc(Br)c2)n1")
"no"
>>> label_class("COc1ccc2[nH]cc(/C=N/Nc3ccnc4cc(Cl)ccc34)c2c1")
"yes"
>>> label_class("O=C(Nc1cc(C(F)(F)F)cc(C(F)(F)F)c1)Nc1ccc2oc(=O)ccc2c1")
"yes"
>>> label_class("O=S(=O)(Oc1ccc(-c2cn3ccoc3n2)cc1)C1CCCCC1")
"no"
>>> label_class("Cc1[nH]c(C(=O)Nc2ccccc2OCc2cccc(C(=O)NC3CCNC3)c2)c(Cl)c1Cl (configuration not stated)")
"no"
>>> label_class("Cc1ccc(NC(=O)Nc2nc3ccc([N+](=O)[O-])cc3s2)cc1")
"yes"
>>> label_class("C#Cc1nc(/C=C\\CCCCCCC(=O)NO)cs1")
"no"
>>> label_class("COc1ccc(C(C)=C(c2ccc(OCCN3CCCCCC3)cc2)c2ccc(OCCN3CCCCCC3)cc2)cc1")
"yes"
>>> label_class("C=C(C)[C@@H]1CC[C@]2(C(=O)N3CCN(C)CC3)CC[C@]3(C)[C@H](CC[C@@H]4[C@@]5(C)CC[C@H](OP(=O)(OCC)OCC)C(C)(C)[C@@H]5CC[C@]43C)[C@@H]12")
"no"
>>> label_class("O=C1[C@@H]2Cc3c([nH]c4ccccc34)[C@@H](c3ccc(Cl)cc3)N2C(=O)CN1C1CCN(Cc2ccccc2)CC1")
"no"
>>> label_class("Cc1ccc2c(n1)C(=O)C(Cl)=C(Nc1cccc(C(=O)OC(C)(C)C)c1)C2=O")
"no"
>>> label_class("CCc1cc2c(cc1Cl)nc1c(=O)[nH]c(=O)nc-1n2CCOCC(C)C")
"no"
>>> label_class("Cc1ccc(C(=O)Nc2ccc(CNCCN3CCOCC3)c(C(F)(F)F)c2)cc1C#Cc1cnc2cccnn12")
"yes"
>>> label_class("CC/C(=C(/c1ccc(Cl)cc1)c1ccc(OCCN)cc1)c1ccccc1")
"no"
>>> label_class("O=[N+]([O-])c1ccc(NC(=S)NNC(=S)Nc2ccc(Br)cc2)cc1")
"no"
